System: HEK293
Experiment: maximal inhibition of ZIKV NS1 production (% inhibition); higher = stronger antiviral effect
Can you tell me maximal inhibition for the items I'm about to list?
Answers are plain numbers.

{"compound": "CCCCC1C(=O)N(c2ccccc2)N(c2ccc(O)cc2)C1=O (centres undefined)", "maximal inhibition": 107}
{"compound": "CC(C)C[C@H](NC(=O)CNC(=O)c1cc(Cl)ccc1Cl)B1OC(=O)C(CC(=O)O)(CC(=O)O)O1", "maximal inhibition": 94}

Take each entry in turn and give its maximal inhibition.
1. C/C=C(/C)C(=O)O[C@H]1C(C)=C2[C@H]([C@@H]1OC(=O)CCCCCCC)[C@@](C)(OC(C)=O)C[C@H](OC(=O)CCC)[C@@]1(O)[C@H]2OC(=O)[C@@]1(C)O
2. Cc1nc(N)nc(N)c1-c1ccc(Cl)c(Cl)c1

Reply:
1: 93; 2: 102
